Values were extracted from paper PMC7318243.

study system: KRAS^G12C (Homo sapiens, UniProt P01116, C118S/C51S/C80L/G12C)
Sequence (P01116 1-169 isoform P01116-2 G12C/C51S/C80L/C118S): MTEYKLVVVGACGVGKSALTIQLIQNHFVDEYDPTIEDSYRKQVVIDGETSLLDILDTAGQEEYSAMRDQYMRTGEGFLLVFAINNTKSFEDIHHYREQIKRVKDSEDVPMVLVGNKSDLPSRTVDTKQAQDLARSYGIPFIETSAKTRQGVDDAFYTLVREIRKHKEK
experiment: Determination of kinact and KI by LC-MS occupancy over time
reported conditions: 10 µM KRAS^G12C; 10-100 µM inhibitor; 0-180 min; read-out: K I (binding constant of the reversible binding event)
endpoint: Ki (µM)

# compound, experimental value
rows = [
    ("C=CC(=O)N1CCC(c2cc3ncc(-c4c(O)cccc4F)cc3c(=O)[nH]2)C1 (stereo not drawn)", 39.3),
]

A = C=CC(=O)N1CCC(c2cc3cnc(-c4c(O)cccc4F)cc3c(=O)[nH]2)C1 (stereo not drawn)
B = C=CC(=O)N1CCC(c2cc3ccc(-c4c(O)cccc4F)cc3c(=O)[nH]2)C1 (stereo not drawn)
Prompt: Which record would sort first by descending Ki, A or B ? // output: label of the selected item
Response: A
